The reported numbers originate from PubChem BioAssay (EPA / NIEHS).

# assay-remarks: ATG_EGR_CIS: Attagene CIS-FACTORIAL HepG2 Assay for human Early Growth Response 1 (EGR1) (AID 2282938)
# recorded-conditions: HepG2 Attagene CIS-FACTORIAL EGR reporter mRNA; actives raise or lower the signal
Active and inactive are the calls of the source. The calls were made as follows: active = hit-call score of the fitted dose curve at least 0.9, where 1 is the maximum; inactive = score below 0.9.
Tick one outcome: True for active, False for inactive

compound=O=C(Nc1ccc([N+](=O)[O-])cc1Cl)c1cc(Cl)ccc1O group=True
compound=CCCCCOC(=O)COc1cc(N2C(=O)C3=C(CCCC3)C2=O)c(F)cc1Cl group=False
compound="CCCCCCC(C)OC(=O)COc1nc(F)c(Cl)c(N)c1Cl (stereo unspecified)" group=False

Exercise: Returns: the outcome recorded for `COC(=O)c1c(Cl)nn(C)c1S(=O)(=O)NC(=O)Nc1nc(OC)cc(OC)n1` in this assay.
Solution: False

Exercise: Returns: the outcome recorded for `OB(O)O` in this assay.
Solution: False

Exercise: Returns: the outcome recorded for `CCCOC(=O)c1ccc(C(=O)OCCC)nc1` in this assay.
Solution: False

Exercise: Returns: the outcome recorded for `CCCN(CCC)c1c([N+](=O)[O-])cc(C(F)(F)F)c(N)c1[N+](=O)[O-]` in this assay.
Solution: False

Exercise: Returns: the outcome recorded for `CC(C)(C)[C@@H](O)[C@@H](Cc1ccc(Cl)cc1)n1cncn1` in this assay.
Solution: True

Exercise: Returns: the outcome recorded for CCC(C)OC(=O)N1CCCCC1CCO (stereo unspecified) in this assay.
Solution: False

Exercise: Returns: the outcome recorded for C[C@]12CC[C@@H]3c4ccc(O)cc4C[C@@H](CCCCCCCCCS(=O)CCCC(F)(F)C(F)(F)F)[C@H]3[C@@H]1CC[C@@H]2O (stereo partly specified) in this assay.
Solution: False

Exercise: Returns: the outcome recorded for `CCOC(=O)[C@H](C)Oc1ccc(Oc2nc3ccc(Cl)cc3o2)cc1` in this assay.
Solution: False
